pIC50 overview
Target: EGFR L858R/C797S (Homo sapiens, UniProt P00533, C797S/L858R)
Sequence (P00533 25-1210 C797S/L858R): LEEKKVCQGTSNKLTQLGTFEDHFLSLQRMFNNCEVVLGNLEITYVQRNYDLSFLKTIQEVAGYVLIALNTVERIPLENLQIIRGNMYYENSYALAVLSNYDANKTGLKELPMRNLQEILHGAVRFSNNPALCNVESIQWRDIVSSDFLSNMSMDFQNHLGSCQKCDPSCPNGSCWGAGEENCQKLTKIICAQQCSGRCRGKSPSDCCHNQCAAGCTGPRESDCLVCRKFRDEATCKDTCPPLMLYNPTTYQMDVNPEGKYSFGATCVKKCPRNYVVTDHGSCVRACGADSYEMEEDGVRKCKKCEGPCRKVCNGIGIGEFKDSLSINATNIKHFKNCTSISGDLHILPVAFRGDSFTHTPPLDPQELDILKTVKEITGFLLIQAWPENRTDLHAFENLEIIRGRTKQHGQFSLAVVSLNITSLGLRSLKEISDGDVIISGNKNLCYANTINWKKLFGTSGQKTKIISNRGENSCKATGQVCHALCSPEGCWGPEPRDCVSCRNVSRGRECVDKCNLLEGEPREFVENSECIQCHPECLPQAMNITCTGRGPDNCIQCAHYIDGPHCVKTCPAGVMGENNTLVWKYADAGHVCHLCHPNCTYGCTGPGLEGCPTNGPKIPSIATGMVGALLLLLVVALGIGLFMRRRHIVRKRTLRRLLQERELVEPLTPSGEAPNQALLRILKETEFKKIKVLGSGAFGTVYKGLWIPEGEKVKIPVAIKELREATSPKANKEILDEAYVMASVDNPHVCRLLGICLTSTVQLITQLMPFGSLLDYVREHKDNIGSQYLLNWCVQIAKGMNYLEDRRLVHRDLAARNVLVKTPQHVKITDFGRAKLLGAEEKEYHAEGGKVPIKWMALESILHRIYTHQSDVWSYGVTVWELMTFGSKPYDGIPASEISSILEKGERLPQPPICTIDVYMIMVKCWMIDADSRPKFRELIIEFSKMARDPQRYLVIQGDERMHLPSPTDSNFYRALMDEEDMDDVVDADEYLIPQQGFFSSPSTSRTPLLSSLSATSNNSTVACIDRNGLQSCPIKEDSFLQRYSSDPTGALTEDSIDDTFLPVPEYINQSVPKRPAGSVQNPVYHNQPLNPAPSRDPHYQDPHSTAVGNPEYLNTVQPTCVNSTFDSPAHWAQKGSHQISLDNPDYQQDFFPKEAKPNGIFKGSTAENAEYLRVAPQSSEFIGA
Experiment: Biochemical EGFR kinase assay (Lance Ultra TR-FRET), double mutant L858R/C797S
Details: ATP at Km; read-out: IC50 L858R/C797S, Km ATP
Friendly reminder that pIC50 comes from taking -log10 of the concentration in mol/L.

| molecule | pIC50 |
| --- | --- |
| O=S(=O)(C1CC1)n1cc(-c2nccc(Nc3cc(NCC4(CO)COC4)c(-c4cccc(F)n4)cn3)n2)cn1 | 8.72 |
| CC(C)Nc1cc(Nc2ccnc(-c3cnn(S(=O)(=O)C4CC4)c3)n2)ncc1-c1ccc(OC2CCN(C)CC2)cn1 | 9.70 |
| O=S(=O)(C1CC1)n1cc(-c2nccc(Nc3cc(NC4CCC(CO)CC4)c(-c4ccc(C(O)C(F)(F)F)cn4)cn3)n2)cn1 (stereo not shown) | 8.60 |

// next item, pIC50 requested
### Prompt Please look up its pIC50: CC1(O)CCC(Nc2cc(Nc3ccnc(-c4cnn(S(=O)(=O)C5CC5)c4)n3)ncc2-c2cc(CN3CC(O)C3)ccn2)CC1 (stereo not shown)
### Response 9.52

---

Target: UniProtKB P00533
Assay: Biochemical EGFR kinase assay (Lance Ultra TR-FRET), wildtype
Settings: ATP at Km; read-out: IC50 WT, Km ATP
This section presents compounds with their documented log10(IC50) values.
All values: base-10 log of IC50 in nM.

A selection of reference data follows.
| compound | log10(IC50) |
| --- | --- |
| O=S(=O)(C1CC1)n1cc(-c2nccc(Nc3cc(N[C@H]4CC[C@@H](CO)CC4)c(-c4cccc(F)n4)cn3)n2)cn1 | 0.15 |
| CC(C)(O)C1CCC(Nc2cc(Nc3ccnc(-c4cnn(S(=O)(=O)C5CC5)c4)n3)ncc2-c2ccc(C(O)C(F)(F)F)cn2)CC1 (stereo not drawn) | 1.24 |
| C[C@]1(O)CC[C@@H](Nc2cc(Nc3ccnc(-c4cnn(S(=O)(=O)C5CC5)c4)n3)ncc2-c2ccc(OC(F)(F)F)cn2)CC1 | 1.56 |
| CC(C)(O)c1ccc(-c2cnc(Nc3ccnc(-c4cnn(S(=O)(=O)C5CC5)c4)n3)cc2NC2CCC(F)CC2)nc1 (stereo not drawn) | 1.37 |
| CN(C)C[C@H]1CC[C@@H](Nc2cc(Nc3ccnc(-c4cnn(S(=O)(=O)C5CC5)c4)n3)ncc2-c2ccc(OC(F)(F)F)cn2)CC1 | 0.48 |

Now examine the next entry.
### Prompt Which log10(IC50) value is on record for CC(C)(O)[C@H]1CC[C@@H](Nc2cc(Nc3ccnc(-c4cnn(S(=O)(=O)C5CC5)c4)n3)ncc2-c2ccc(OCCN3CCC3)cn2)CC1 ?
### Response -0.10

---

Biological target: EGFR del19/C797S (Homo sapiens, UniProt P00533, C797S/DEL746-750)
Sequence (P00533 with tags, fused parts or gaps DEL746-750/C797S): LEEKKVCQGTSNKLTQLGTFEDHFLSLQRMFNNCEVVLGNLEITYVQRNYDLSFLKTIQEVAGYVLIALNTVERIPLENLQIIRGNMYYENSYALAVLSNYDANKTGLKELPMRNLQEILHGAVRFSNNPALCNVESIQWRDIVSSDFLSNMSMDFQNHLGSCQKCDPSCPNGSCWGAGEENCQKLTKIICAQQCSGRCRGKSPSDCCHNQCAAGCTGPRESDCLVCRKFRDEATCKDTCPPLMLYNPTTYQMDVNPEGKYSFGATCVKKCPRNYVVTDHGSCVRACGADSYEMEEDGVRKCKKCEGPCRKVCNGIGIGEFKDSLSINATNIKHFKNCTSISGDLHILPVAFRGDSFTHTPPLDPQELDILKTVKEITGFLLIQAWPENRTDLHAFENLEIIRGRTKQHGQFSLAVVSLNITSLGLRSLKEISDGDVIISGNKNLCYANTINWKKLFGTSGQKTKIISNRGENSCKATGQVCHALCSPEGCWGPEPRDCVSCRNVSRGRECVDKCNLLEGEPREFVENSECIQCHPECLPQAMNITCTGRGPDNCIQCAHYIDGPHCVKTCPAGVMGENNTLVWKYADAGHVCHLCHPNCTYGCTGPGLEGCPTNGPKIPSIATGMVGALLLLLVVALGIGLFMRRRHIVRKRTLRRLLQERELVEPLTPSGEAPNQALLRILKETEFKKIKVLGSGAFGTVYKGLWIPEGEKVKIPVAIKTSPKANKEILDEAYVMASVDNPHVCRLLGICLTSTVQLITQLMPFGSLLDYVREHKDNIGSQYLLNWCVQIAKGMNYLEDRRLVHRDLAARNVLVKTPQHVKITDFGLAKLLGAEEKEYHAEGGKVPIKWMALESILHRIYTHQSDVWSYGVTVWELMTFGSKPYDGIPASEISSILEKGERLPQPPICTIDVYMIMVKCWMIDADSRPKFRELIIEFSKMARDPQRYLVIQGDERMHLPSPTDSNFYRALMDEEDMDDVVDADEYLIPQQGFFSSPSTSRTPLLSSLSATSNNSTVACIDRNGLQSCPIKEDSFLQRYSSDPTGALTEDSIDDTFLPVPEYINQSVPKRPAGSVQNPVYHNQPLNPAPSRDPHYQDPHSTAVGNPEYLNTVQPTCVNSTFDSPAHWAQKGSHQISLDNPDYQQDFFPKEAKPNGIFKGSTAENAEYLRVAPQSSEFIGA
Assay: Biochemical EGFR kinase assay (Lance Ultra TR-FRET), double mutant del19/C797S
Conditions: IC50 del19/C797S, 100 μM ATP
reported_metric: pIC50
Notebook: values listed as pIC50 are -log10 of the concentration (mol/L).

| compound | experimental_system | pIC50 |
| --- | --- | --- |
| O=S(=O)(C1CC1)n1cc(-c2nccc(Nc3cc(N[C@H]4CC[C@@H](CO)CC4)c(-c4ccc(OCCO)cn4)cn3)n2)cn1 [Example 206] | EGFR del19/C797S (Homo sapiens, UniProt P00533, C797S/DEL746-750) | 9.22 |
| CC(C)(O)[C@H]1CC[C@@H](Nc2cc(Nc3ccnc(-c4cnn(S(=O)(=O)C5CC5)c4)n3)ncc2-c2ccc(OCCN3CCC3)cn2)CC1 [Example 217] | EGFR del19/C797S (Homo sapiens, UniProt P00533, C797S/DEL746-750) | 9.52 |
| CN(C)C(=O)[C@H]1CC[C@@H](Nc2cc(Nc3ccnc(-c4cnn(S(=O)(=O)C5CC5)c4)n3)ncc2-c2ccc(C(C)(C)O)cn2)CC1 [Example 172] | EGFR del19/C797S (Homo sapiens, UniProt P00533, C797S/DEL746-750) | 9.10 |

### Prompt Please give the measured pIC50 for this compound: CN(C)CCOc1ccc(-c2cnc(Nc3ccnc(-c4cnn(S(=O)(=O)C5CC5)c4)n3)cc2N[C@H]2CC[C@@H](CO)CC2)nc1 [Example 209]
### Response 9.52

### Prompt Can you check CC(C)(O)[C@H]1CC[C@@H](Nc2cc(Nc3ccnc(-c4cnn(S(=O)(=O)C5CC5)c4)n3)ncc2-c2ccc(OC(F)(F)F)cn2)CC1 [Example 196] next?
### Response 6.87

### Prompt // query: CN(C)S(=O)(=O)c1ccc(-c2cnc(Nc3ccnc(-c4cnn(S(=O)(=O)C5CC5)c4)n3)cc2N[C@H]2CC[C@@H](C(C)(C)O)CC2)nc1 [Example 165]
### Response 8.12
